These data points were gathered from patent US8383637B2.

- system name: β-secretase(BACE) (Homo sapiens)
- Construct: purchased Panvera
- Sequence (P56817 46-501): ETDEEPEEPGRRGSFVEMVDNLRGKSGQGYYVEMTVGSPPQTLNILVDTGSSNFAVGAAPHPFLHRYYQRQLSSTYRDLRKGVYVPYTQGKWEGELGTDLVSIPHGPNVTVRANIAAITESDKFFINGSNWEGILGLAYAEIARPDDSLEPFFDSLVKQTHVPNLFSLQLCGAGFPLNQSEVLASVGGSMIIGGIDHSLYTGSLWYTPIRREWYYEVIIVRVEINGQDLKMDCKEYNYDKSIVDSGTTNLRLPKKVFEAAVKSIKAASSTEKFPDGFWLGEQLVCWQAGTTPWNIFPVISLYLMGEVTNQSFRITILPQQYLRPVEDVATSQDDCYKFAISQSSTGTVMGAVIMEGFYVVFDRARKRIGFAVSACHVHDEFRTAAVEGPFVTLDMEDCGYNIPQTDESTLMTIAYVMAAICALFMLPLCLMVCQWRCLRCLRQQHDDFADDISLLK
- assay summary: BACE FS1% Inhibition Assay
- Type: biochemical
- conditions used: 3 μM test compound; FS1 substrate
- Description: BACE FS1% Inhibition Assay The following reagents were used in this assay: sodium acetate, PEG8000 (Sigma), DMSO, HEPES, FS1 substrate [[…]] […] The FS1-substrate stock solution was prepared in DMSO as a 10 mg/mL solution. The FS1-substrate working solution was prepared by diluting the 10 mg/mL stock solution with substrate assay buffer to a final concentration of 300 μg/mL. […] For test compounds, % inhibition was determined at each concentration as follows: [formula]
In this section, each of the compounds is paired with its reported % Inhibition (FS) 3 μM.

Query string: Entry under review: CC(C)COc1ccc2c(c1)CN(Cc1cccc(C(=O)N(C)C3CCCCC3)c1)C(N)=N2 . Reported % Inhibition (FS) 3 μM?
Result string: <30%

Query string: Please do the same for CN1CCC(N(C)C(=O)c2cccc(C(c3ccccc3)N3Cc4cc(Oc5ccccc5)ccc4N=C3N)c2)CC1 (stereo not shown) as well.
Result string: <30%

Query string: Please do the same for CC(C)(C)OC(=O)NCc1cccc(CN2Cc3cc(Oc4ccccc4)ccc3N=C2N)c1 as well.
Result string: 33%

Query string: Please do the same for Cc1ccccc1-c1ccc2c(c1)CN(CCNC(=O)C1CCC1)C(N)=N2 as well.
Result string: 104%

---

In this section, each of the molecules is paired with its reported log10(IC50).
- system name: β-secretase(BACE) (Homo sapiens)
- Construct: purchased Panvera
- assay summary: BACE Assay-1 (MCA-substrate, IC50)
- Type: biochemical
- conditions used: procedure of Example 158; read-out: IC50 μM (158)
Values reflect log10 of reported IC50 (µM).

Query string: Reported log10(IC50) for β-secretase(BACE) (Homo sapiens), given CCOC(=O)N1CCC(N2Cc3cc(Oc4cccc(NS(=O)(=O)c5ccccc5)c4)ccc3N=C2N)CC1 ?
Result string: -0.77

---

- system name: β-secretase(BACE) (Homo sapiens)
- Construct: purchased Panvera
- assay summary: BACE FS1% Inhibition Assay
- Format: biochemical
- conditions used: 1 μM test compound; FS1 substrate
- Method: BACE FS1% Inhibition Assay The following reagents were used in this assay: sodium acetate, PEG8000 (Sigma), DMSO, HEPES, FS1 substrate [[…]] […] The FS1-substrate stock solution was prepared in DMSO as a 10 mg/mL solution. The FS1-substrate working solution was prepared by diluting the 10 mg/mL stock solution with substrate assay buffer to a final concentration of 300 μg/mL. […] For test compounds, % inhibition was determined at each concentration as follows: [formula]
parameter: % Inhibition (FS) (%)
Reply with just the number (in %).

Reference set, count: 4
[
  {
    "compound": "CCCCC(CC)C(=O)NCCN1Cc2cc(-c3ccccc3C)ccc2N=C1N (stereo not shown) [Compound 662]",
    "system name": "β-secretase(BACE) (Homo sapiens)",
    "units": "%",
    "observed value": 97
  },
  {
    "compound": "COC(=O)C(COCc1ccccc1)N(C)C(=O)CCC(C1CCCCC1)N1Cc2cc(Oc3ccccc3)ccc2N=C1N (stereo not shown) [Compound 780]",
    "system name": "β-secretase(BACE) (Homo sapiens)",
    "units": "%",
    "observed value": 97
  },
  {
    "compound": "CN(C(=O)CCC(C1CCCCC1)N1Cc2cc(Oc3ccccc3)ccc2N=C1N)C1CCC(C#N)CC1 (stereo not shown) [Compound 769]",
    "system name": "β-secretase(BACE) (Homo sapiens)",
    "units": "%",
    "observed value": 61
  },
  {
    "compound": "CN(CC(=O)O)C(=O)CCC(C1CCCCC1)N1Cc2cc(Oc3ccccc3)ccc2N=C1N (stereo not shown) [Compound 767]",
    "system name": "β-secretase(BACE) (Homo sapiens)",
    "units": "%",
    "observed value": 71
  }
]

Okay, now this compound:
Query string: Reported % Inhibition (FS) for β-secretase(BACE) (Homo sapiens), given NC1=Nc2ccc(-c3ccc4ccccc4c3)cc2CN1CCNC(=O)CCC(F)(F)F [Compound 686] ?
Result string: 73
